We begin with a simple list: items and their reported inhibition.
molecular target: C-X-C chemokine receptor type 6 (Homo sapiens) (UniProt O00574); experiment: CXCR6 and CXCR5 receptor antagonist panel, profiling panel, selectivity assay for CXCR6 antagonist project, cell-based, CHO-K1 PathHunter beta-arrestin, luminescence, set 4 (AID 651919); details: run 2, at 79 µM (top of the series)
Sequence (O00574 whole entry, looked up): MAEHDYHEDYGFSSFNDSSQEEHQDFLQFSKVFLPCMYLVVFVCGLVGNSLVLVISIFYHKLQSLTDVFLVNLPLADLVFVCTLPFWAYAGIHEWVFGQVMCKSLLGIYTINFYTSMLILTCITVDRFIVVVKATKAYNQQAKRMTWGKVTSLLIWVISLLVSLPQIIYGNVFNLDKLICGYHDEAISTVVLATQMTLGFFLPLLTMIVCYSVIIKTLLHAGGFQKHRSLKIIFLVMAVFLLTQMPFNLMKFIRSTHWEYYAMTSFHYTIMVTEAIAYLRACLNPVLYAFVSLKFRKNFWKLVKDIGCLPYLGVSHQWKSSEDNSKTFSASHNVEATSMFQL

>  <Compound>
COc1ccc(CN2C3CCCC2CC(NC(=O)c2cc(OC)c(OC)c(OC)c2)C3)cc1 (centres undefined)

>  <inhibition>
56.8%

$$$$
>  <Compound>
COc1cc(OC)cc(C(=O)NC2CC3CCCC(C2)N3CC(=O)Nc2ccc(F)cc2)c1 (centres undefined)

>  <inhibition>
-4.2%

$$$$
>  <Compound>
O=C(CN1C2CCCC1CC(NC(=O)c1ccc3c(c1)OCO3)C2)Nc1ccc(Cl)cc1 (centres undefined)

>  <inhibition>
-3.16%

$$$$
>  <Compound>
COc1ccc(C(=O)NC2CC3CCCC(C2)N3CC(=O)Nc2ccc(F)cc2)cc1OC (centres undefined)

>  <inhibition>
29.3%

$$$$
>  <Compound>
COc1cccc(C(=O)NC2CC3CCCC(C2)N3CC(=O)Nc2ccc(C)cc2)c1 (centres undefined)

>  <inhibition>
3.25%

$$$$
>  <Compound>
COc1cc(OC)cc(C(=O)NC2CC3CCCC(C2)N3CC(=O)Nc2ccc(C)cc2)c1 (centres undefined)

>  <inhibition>
55.4%

$$$$
>  <Compound>
COc1ccc(C(=O)NC2CC3CCCC(C2)N3CC(=O)Nc2ccc(Cl)cc2)cc1 (centres undefined)

>  <inhibition>
-10.3%

$$$$
>  <Compound>
COc1ccc(C(=O)NC2CC3CCCC(C2)N3CC(=O)Nc2ccccc2)cc1 (centres undefined)

>  <inhibition>
8.56%

$$$$
>  <Compound>
O=C(CN1C2CCCC1CC(NC(=O)c1ccccc1)C2)Nc1ccccc1 (centres undefined)

>  <inhibition>
7.76%

$$$$
